B1: CPEB3 Ribozyme (parent)
chain: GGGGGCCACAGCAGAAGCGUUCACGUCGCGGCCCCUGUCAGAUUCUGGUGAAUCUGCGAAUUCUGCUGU

# Variants of: B1
# assayDetails: self-cleavage, relative activity (ratio to wild type); higher = more cleavage; co-transcriptional
Kindly note that classification relies on self-cleavage with these boundaries: LOW (below 0.2), MID (0.2 to below 0.7), HIGH (0.7 or more)

Task: Looking at GGGGGCCACAGCAUAAGCGUUCACGUCGCGGCCCCUGUCAGAUUCUGGUGAAUCUGCGAAUUCUCCUGU [G14U G65C] , which class would you pick?
Output: MID

Task: GGGGGCCACAGCAGAAGCGUUCACGUCGCGGCCCCUGUCAGAUUCUGAUGAAUCUGCGAAUUGUGCUGU [G48A C63G] , same question.
Output: HIGH

Task: Another: GGGGGCCACAGCAGAAGCAUUCAUGUCGCGGCCCCUGUCAGAUUCUGGUGAAUCUGCGAAUUCUGCUGU [G19A C24U]
Output: LOW

Task: Ok, now GGCGGCCACAGAAGAAGCGUUCACGUCGCGGCCCCUGUCAGAUUCUGGUGAAUCUGCGAAUUCUGCUGU [G3C C12A]
Output: LOW

Task: Ok, now GGGGGCCACAGCAGAAGCGUUCACGUCGCGGGCCCUGUCAGAGUCUGGUGAAUCUGCGAAUUCUGCUGU [C32G U43G]
Output: MID

Task: For GGGGGCCACAGCAGAAGCGUUCACGUCGCGGCCCCCGUCCGAUUCUGGUGAAUCUGCGAAUUCUGCUGU [U36C A40C] then?
Output: MID

Task: // repeat for GGGGGCCACAGCAGAAGCGUUCACGUCGCGGCCCCUGUCAUAUUCUGGUGAAUCUGCGAAUUCAGCUGU [G41U U64A] and report
Output: MID

Task: Moving on to GGGAGCCACAGCAGAAGCGUUCACGUCGCGGCCCCUGUCAGAUUCUGAUGAAUCUGCGAAUUCUGCUGU [G4A G48A]
Output: HIGH

Task: Could you do the same for GGGGGCCACAGCAGAAGCGUUCACGUCGCGGCCCCUGUCAGAUUCUGCUGAAUCUGCGCAUUCUGCUGU [G48C A59C] , please?
Output: HIGH

Task: Next up: GGGGGCCACAGCAGAAGCGUUCACGUCGCGGCUCCUCUCAGAUUCUGGUGAAUCUGCGAAUUCUGCUGU [C33U G37C]
Output: MID

Task: Same thing, different variant: GGGGGCCACAGCAGAAGCGCUCACGUCGCGGCCCCUGUCAGAUUCAGGUGAAUCUGCGAAUUCUGCUGU [U20C U46A]
Output: MID

Task: Again, but for GGGGGCCACAGCAGAAGCGUUCACGUCGGGGCCCCUGUCCGAUUCUGGUGAAUCUGCGAAUUCUGCUGU [C29G A40C]
Output: LOW
